- Tested target: TNKS2 (Homo sapiens, UniProt Q9H2K2)
- Construct: GST-tagged Tnks-2 (873-1166 aa, prepared in-house); made in house
- Sequence (Q9H2K2 873-1166): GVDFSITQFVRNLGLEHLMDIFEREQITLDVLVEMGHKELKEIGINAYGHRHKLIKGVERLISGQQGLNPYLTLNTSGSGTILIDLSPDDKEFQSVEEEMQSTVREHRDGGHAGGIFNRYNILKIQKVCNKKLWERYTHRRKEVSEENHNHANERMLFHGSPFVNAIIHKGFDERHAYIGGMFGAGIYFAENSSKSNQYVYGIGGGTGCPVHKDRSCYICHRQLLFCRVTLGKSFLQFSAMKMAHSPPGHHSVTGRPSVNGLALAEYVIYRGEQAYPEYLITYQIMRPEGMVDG
- Assay protocol: TNKS2 activity ELISA (autoparsylation assay)
- Format: biochemical
- Measurement parameters: GST-tagged Tnks-2 (873-1166 aa); read-out: IC50 [M] TNKS2 ELISA
Endpoint: IC50 (M)
Give just the number in M; leave the unit off.

Example entries and their recorded answers appear below.
[in] # IC50 lookup, item `Cc1csc2c(=O)[nH]c(CCCC(=O)N3CCC(c4cnc(N)c(-c5ncccn5)c4)CC3)nc12`
[out] 7.9e-10

[in] Quick one: `Cn1ccc2c(=O)[nH]c(CCCC(=O)N3CCC(c4nnc(-c5ccccc5)o4)CC3)nc21`
[out] 2.5e-09

Next:
[in] What IC50 value was documented for this compound, `Cc1ccc(C(=O)C2CCN(C(=O)CCCc3nn4cccc4c(=O)[nH]3)CC2)cc1` ?
[out] 3.9e-10

[in] Same thing, different compound: `Cc1ccc2c(=O)[nH]c(CCCC(=O)N3CCC(c4cnc(N)c(-c5ncccn5)c4)CC3)nn12`
[out] 2.8e-10
